molecular target: Phospholipase C (Bacillus cereus, UniProt P09598); assay: Uncompetitive inhibition of Bacillus cereus phosphatidylcholine preferred phospholipase C by Dixon plot analysis
Sequence (P09598 whole entry): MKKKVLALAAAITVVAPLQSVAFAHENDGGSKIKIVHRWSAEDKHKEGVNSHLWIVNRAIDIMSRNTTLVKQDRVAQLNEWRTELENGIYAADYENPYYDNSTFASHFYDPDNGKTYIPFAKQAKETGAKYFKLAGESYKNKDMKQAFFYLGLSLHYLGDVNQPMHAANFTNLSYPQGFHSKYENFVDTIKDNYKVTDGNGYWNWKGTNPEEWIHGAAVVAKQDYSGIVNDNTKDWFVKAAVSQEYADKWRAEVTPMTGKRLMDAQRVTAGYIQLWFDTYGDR
pKi: −log10 of the molar value.
quantity-name: pKi

CCCCCCCCCCC(N)C(=O)N(O)CC[N+](C)(C)C.Cl.[Cl-] (stereo unspecified); 4.92

* * *

target: Phospholipase C (Bacillus cereus); experiment: Mixed-type inhibition of Bacillus cereus phosphatidylcholine preferred phospholipase C by Dixon plot analysis
pKi: −log10 of the molar value.
quantity-name: pKi

CCCCCCCCCCC(N)C(=O)N(O)CCC[N+](C)(C)C.Cl.[Cl-] (configuration not stated); 4.59
CCCCCCCCCCC(NC(=O)OC(C)(C)C)C(=O)N(CCC[N+](C)(C)C)OCc1ccccc1.[I-] (configuration not stated); 5.60
